Sourced from patent US9326506B2

Would you mind telling me the reported Area of leaf of each entry?
- Test system: rice
- PROTOCOL_DESCRIPTION: Low temperature assay on rice seedlings
- Type: in vivo
- STUDY_CONDITIONS: 0.0001 mg/l, 4 °C, 9 days

INPUT: Which Area of leaf reading was recorded for the molecule C=C(C(C)C)[C@@H](O)[C@H](O)[C@@H](C)[C@H]1CCC2C3COC(=O)C4C[C@H](O)[C@H](O)C[C@]4(C)C3CC[C@@]21C (stereo partly drawn) [BR3] ?
OUTPUT: 13 cm^2

INPUT: Which Area of leaf reading was recorded for the molecule CC(C)[C@H](C)[C@@H](O)[C@H](O)[C@@H](C)[C@H]1CCC2C3COC(=O)C4C[C@H](O)[C@H](O)C[C@]4(C)C3CC[C@@]21C (stereo partly drawn) [BR1] ?
OUTPUT: 13 cm^2

INPUT: Which Area of leaf reading was recorded for the molecule CC[C@@H](C(C)C)[C@@H](O)[C@H](O)[C@@H](C)[C@H]1CCC2C3COC(=O)C4C[C@H](O)[C@H](O)C[C@]4(C)C3CC[C@@]21C (stereo partly drawn) [BR2] ?
OUTPUT: 13 cm^2
